Hey, just so you know, these numbers are from patent US20190315864A1.

target: T1, Mouse CTLA4-Fc protein (mouse, biotinylated (mCTLA4-Fc-Biotin)); test: ELISA, VHH coated 0.5 µg/well, mouse CTLA4-Fc (biotinylated), SA-HRP; blank 0.027
T1 construct: also called mCTLA4-Fc-Biotin; mouse CTLA4-Fc fusion protein
T1 sequence (chain, as listed by the source limits assumed): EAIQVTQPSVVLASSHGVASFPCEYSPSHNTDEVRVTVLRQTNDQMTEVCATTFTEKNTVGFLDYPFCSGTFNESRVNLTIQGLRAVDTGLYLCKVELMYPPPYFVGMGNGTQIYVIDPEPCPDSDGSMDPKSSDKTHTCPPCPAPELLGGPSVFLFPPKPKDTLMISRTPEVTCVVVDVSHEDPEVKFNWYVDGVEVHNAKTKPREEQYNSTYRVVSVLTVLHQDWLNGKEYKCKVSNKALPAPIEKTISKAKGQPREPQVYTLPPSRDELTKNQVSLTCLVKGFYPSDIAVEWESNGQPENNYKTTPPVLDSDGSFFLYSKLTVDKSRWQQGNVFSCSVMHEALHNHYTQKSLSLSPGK
property name: OD (against mouse CTLA4) (OD405)
The reply should contain only the number, in OD405.

Known OD (against mouse CTLA4) results, listed for orientation:
binder="CTLA4 heavy chain single domain antibody No. 155 (VHH, Camel VHH expressed in E. coli (PET32b), nickel-purified) VHH: QVQLQESGGGPVQAGGSLRLSCAVSKYPYSGSCMGWFRQAPGKEREGVAAMFTGTGSTYYADSVKGRFTISQNVAKNTLDLQMNSLKPEDTAMYYCAVDLLPRSTRCLDYGLRTYNYWGQGTQVTVSS" property_name="OD (against mouse CTLA4)" assay_value=0.032
binder="CTLA4 heavy chain single domain antibody No. C27 (VHH, Camel VHH expressed in E. coli (PET32b), nickel-purified) VHH: QVQLQESGGGSVQAGGSLRLSCAASGYIYSAYCMGWFRQAPGKERVGVAAISIGGGSTYYADSVKGRFTISQDNAKNTLYLQMNSLKPEDTAMYYCAADVIPTETCLGGSWSGPFGYWGQGTQVTVSS" property_name="OD (against mouse CTLA4)" assay_value=0.021
binder="CTLA4 heavy chain single domain antibody No. C1 (VHH, Camel VHH expressed in E. coli (PET32b), nickel-purified, detected by anti-His tag antibody) VHH: QVQLQESGGGSVQAGGSLGLSCAASGYIYSAYCMGWFRQAPGKEREGVAAIYLGGGSTYYADSVKGRFTISQDIAKNTLYLQMNSLKPEDTAMYSCAADVIPTETCLGGSWSGPFGYWGQGTQVTVSS" property_name="OD (against mouse CTLA4)" assay_value=0.042

Attention now turns to another entry.
Task: Data request, read-out OD (against mouse CTLA4), for CTLA4 heavy chain single domain antibody No. 145 (VHH, Camel VHH expressed in E. coli (PET32b), nickel-purified) VHH: QVQLQESGGGSVQAGGSLRLSCAASGYTYSSYSMGWFRQAAGKEREGVAAIDSDGSTSYADSVKGRFTISQDNAKNTLYLQMNSLEPEDTAMYYCAATAGWYAARHALSPLFFGYWGQGTQVTVSS
Output: 0.026
